Tested on: Toxoplasma gondii RH (in HFF)
Test: parasite growth relative to the screen mean (all compounds = 100%); higher = less inhibition of parasite growth
Settings: 5 µM; 72 h; oxygen 21 %
endpoint: parasite growth (%)
The figure you give is taken to be in %; do not add the unit.

For the molecule COc1ccc([C@H]2CNC(=O)C2)cc1OC1CCCC1 [(S)-(+)-Rolipram] , the measured parasite growth on Toxoplasma gondii RH (in HFF) was 116

Result for CCC1(c2ccccc2)C(=O)NCNC1=O [Primidone] , tested on Toxoplasma gondii RH (in HFF), parasite growth: 113

Query NC(C(=O)O)c1cc(O)cc(O)c1 (racemic) on Toxoplasma gondii RH (in HFF); parasite growth returned: 142

Tested on Toxoplasma gondii RH (in HFF), the item COc1ccc2[nH]c(-c3ccccc3)c(CCNC(C)=O)c2c1 [2-Phenylmelatonin] showed parasite growth equal to 149

The molecule COc1ccc(-c2nc(-c3ccc(-c4cccc(Cl)c4)o3)[nH]c2-c2ccc(OC)cc2)cc1 [Neurodazine] , when measured on Toxoplasma gondii RH (in HFF), yielded parasite growth of 120

----------
Kindly state parasite growth for each of the entries shown.
Test system: Toxoplasma gondii RH (in HFF)
Test: parasite growth relative to the screen mean (all compounds = 100%); higher = less inhibition of parasite growth
Conditions: 5 µM; 72 h; oxygen 21 %
Where a name gives a salt, the structure may show the parent alone.
State the answer as a number, implicitly in %.

Recorded parasite growth (compound `O=[N+]([O-])c1cc(Cl)ccc1S(=O)(=O)N1CCN(Cc2ccccc2)CC1` ): 130

Documented parasite growth of Cc1ccc(OCC(O)C(C)NC(C)C)c2c1CCC2 (stereo not given) [ICI-118,551 hydrochloride] : 92.9

The compound listed as O=C(OCCN1CCOCC1)C1(c2ccccc2)CCCCC1 [PRE-084 hydrochloride] has a reported parasite growth of 99.6

The compound identified as Oc1cc2c(cc1O)C(c1ccccc1)CNCC2 (stereo not given) registered its parasite growth at 162

parasite growth reading for `COc1cc(OC)c(C(=O)CCCCN2CCC3(CC2)NC(=O)NC3=O)cc1NS(=O)(=O)c1ccc(C(F)(F)F)cc1` : 109

The compound listed as CC(C)NCC(O)COc1cccc2[nH]ccc12 (stereo not given) has a reported parasite growth of 148

// `COc1ccc(Br)cc1S(=O)(=O)NC(=O)/C=C/c1ccccc1Cc1ccc2ccccc2c1` : parasite growth value = 125

Documented parasite growth of c1ccc(N2CCN(CCCOc3ccc4c(c3)OCO4)CC2)cc1 [BP 554 maleate] : 127

The reported value for `CCCCC[C@H](O)/C=C/[C@H]1[C@H](O)CC(=O)[C@@H]1CCCCCCC(=O)O` in terms of parasite growth is 140

Measured parasite growth of `Oc1ccc(-c2nc3cc(O)cc(Br)c3o2)cc1` : 134

----------
System: Toxoplasma gondii RH (in HFF)
Experiment: parasite growth relative to the screen mean (all compounds = 100%); higher = less inhibition of parasite growth
Conditions: 5 µM; 72 h; oxygen 21 %
Where a name gives a salt, the structure may show the parent alone.
endpoint: parasite growth (%)
Report as a plain number; the unit % is understood.

Hey, Toxoplasma gondii RH (in HFF) data for CC1=C(C(=O)OCCN(Cc2ccccc2)c2ccccc2)C(c2cccc([N+](=O)[O-])c2)C(P2(=O)OCC(C)(C)CO2)=C(C)N1 (centres undefined) [Efonidipine hydrochloride monoethanolate] : parasite growth came out at 58

Result for `CSc1cc2c(cc1C(F)(F)F)N(C(=O)Nc1cccnc1)CC2` , tested on Toxoplasma gondii RH (in HFF), parasite growth: 122

Observed parasite growth on Toxoplasma gondii RH (in HFF), entry O=C(NCCCN1CCCCCC1)C(c1ccccc1)C1CCCCC1 (centres undefined) , equals 83

Fill in: Toxoplasma gondii RH (in HFF) parasite growth for `N[C@@H](Cc1cc(CP(=O)(O)O)cc(-c2ccccc2Cl)c1)C(=O)O` = 122
